- Study System: Histamine H4 receptor (Mus musculus)
- Sequence (Q91ZY2 whole entry): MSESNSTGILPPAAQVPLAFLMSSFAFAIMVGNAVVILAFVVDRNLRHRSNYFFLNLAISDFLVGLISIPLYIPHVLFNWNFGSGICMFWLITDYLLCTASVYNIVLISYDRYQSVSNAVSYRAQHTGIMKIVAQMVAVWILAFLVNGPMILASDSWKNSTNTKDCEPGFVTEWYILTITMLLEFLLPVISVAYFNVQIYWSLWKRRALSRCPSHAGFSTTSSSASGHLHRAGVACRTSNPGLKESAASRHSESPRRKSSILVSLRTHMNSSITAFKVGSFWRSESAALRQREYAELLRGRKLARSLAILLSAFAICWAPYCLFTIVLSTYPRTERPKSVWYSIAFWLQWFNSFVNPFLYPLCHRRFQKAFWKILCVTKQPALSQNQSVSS
- Protocol Notes: Displacement of UR-DEBa176 from mouse recombinant H4R expressed in HEK293T-SF-His6-CRE-Luc cells
- Format: cell-based
Reported Endpoint: pKi
Interpret pKi as the negative base-10 log of the concentration measured in mol/L.

Identify the measured pKi of S=C(NC1CCCCC1)N1CCC(c2cnc[nH]2)CC1 [THIOPERAMIDE] for Histamine H4 receptor (Mus musculus).
7.10

Identify the measured pKi of NC(=NCc1ccc(Cl)cc1)SCCCc1cnc[nH]1 [CLOBENPROPIT] for Histamine H4 receptor (Mus musculus).
6.80

----------
Measured Ki, listed per entry for reference.
- Study System: Histamine H3 receptor (Homo sapiens)
- Sequence (Q9Y5N1 whole entry): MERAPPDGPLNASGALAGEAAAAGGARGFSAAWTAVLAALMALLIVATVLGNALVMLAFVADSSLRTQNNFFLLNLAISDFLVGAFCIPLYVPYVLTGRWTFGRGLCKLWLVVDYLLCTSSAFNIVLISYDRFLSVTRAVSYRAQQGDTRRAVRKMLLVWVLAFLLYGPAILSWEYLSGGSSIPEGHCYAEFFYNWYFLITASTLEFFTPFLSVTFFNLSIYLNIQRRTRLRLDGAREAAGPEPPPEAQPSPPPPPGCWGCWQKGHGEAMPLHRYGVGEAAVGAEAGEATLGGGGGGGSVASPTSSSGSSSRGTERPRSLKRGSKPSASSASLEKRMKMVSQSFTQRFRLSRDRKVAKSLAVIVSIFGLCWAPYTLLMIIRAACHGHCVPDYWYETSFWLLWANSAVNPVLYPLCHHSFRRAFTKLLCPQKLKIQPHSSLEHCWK
- Design: species or system Sf9
Numeric answer only, unit nM assumed.

Identify the measured Ki of NCCCc1c[nH]cn1 for Histamine H3 receptor (Homo sapiens).
93.3

Identify the measured Ki of NCCCCCc1c[nH]cn1 for Histamine H3 receptor (Homo sapiens).
37.2
